Tested on: IGROV1 ovarian
Experiment: NCI-60 one-dose screen, 48 h (100 = growth as untreated, 0 = no growth, -100 = all killed)
Settings: 10 µM
Compounds without any hit were thinned out: in the full panel of roughly 83,000, 20% have a hit.
Give measured growth for each item. Keep answers brief.
Give the quantity in %, number only.

Problem: State, in one line, measured growth of CCN(CC)CC(=O)N(CC)c1ccc(C)c(Cl)c1
Solution: 101

Problem: State, in one line, measured growth of C/C=C/C1=CN2C(=O)c3cc(OC4OC(C)C(NC)C(C)(O)C4O)c(C)c(O)c3N=C[C@@H]2C1 (stereo not given in full)
Solution: -22.7

Problem: State, in one line, measured growth of COc1ccc2c(c1)C(=O)/C(=C/c1ccc([N+](=O)[O-])o1)O2
Solution: -66.3

Problem: State, in one line, measured growth of NC1=CC(=O)C(=O)c2cccnc21
Solution: 76.7

Problem: State, in one line, measured growth of O=C(CCl)Oc1ccc(OC(=O)CCl)cc1
Solution: 93.1

Problem: State, in one line, measured growth of O=C1/C=C/[C@@H](O)[C@@H]2C[C@@H](O)C[C@H]2/C=C/CCC[C@@H](C(F)(F)F)O1
Solution: 105

Problem: State, in one line, measured growth of COc1cc(-c2csc(NC(=O)Nc3ccc(Cl)c(C(F)(F)F)c3)n2)cc(OC)c1OC
Solution: 25.2

Problem: State, in one line, measured growth of CC(=O)/C(=C/c1ccc(Br)cc1)C(=O)c1ccccc1
Solution: 74

Problem: State, in one line, measured growth of Cc1ccc(NC(=O)N2CCCCC2)cc1[N+](=O)[O-]
Solution: 87.3

Problem: State, in one line, measured growth of COc1cc(/C=C/c2cc(/C=C/c3ccc(O)c(OC)c3)nc(N)n2)ccc1O
Solution: 3.42

----------
System: SF-268 CNS
Assay: NCI-60 one-dose screen, 48 h
Conditions: 10 µM
Compounds without any hit were thinned out: in the full panel of roughly 83,000, 20% have a hit. Activity calls are given as the source filed them. Rule for the calls: active = growth percent below 10; inactive = the rest.
Output constraint: value belongs to TRUE for active, FALSE for inactive

Problem: Query: recorded result category for COc1ccc2nc3cc(Cl)ccc3c(Nc3cc(CN4CCCC4)c(O)c(CN4CCCC4)c3)c2n1 in this test
Solution: TRUE

Problem: Query: recorded result category for C/C=C/CSC(C)(C)C(=O)NC in this test
Solution: FALSE

Problem: Query: recorded result category for CC(C)(C)c1ccc(S(=O)(=O)N[C@H]2CC[C@H]3[C@@H]4CCc5cc(OS(=O)(=O)O)ccc5[C@H]4CC[C@]23C)cc1 in this test
Solution: FALSE

Problem: Query: recorded result category for Clc1ccc(Cc2ccncc2)cc1 in this test
Solution: FALSE

Problem: Query: recorded result category for CN1CCc2c(sc3nc4n(-c5ccc(Cl)cc5)c(=O)[nH]n4c(=O)c23)C1 in this test
Solution: FALSE

Problem: Query: recorded result category for NC1=NC(c2ccccc2)C2=C(N1)/C(=C/c1ccccc1)CCC2 (stereo not given) in this test
Solution: FALSE

Problem: Query: recorded result category for CC(C)(C)OC(=O)CN1CCc2c(sc3ncnc(N/N=C/c4ccccc4Br)c23)C1 in this test
Solution: FALSE

Problem: Query: recorded result category for CC(C)(C)c1ccc(S(=O)(=O)N[C@H]2CC[C@H]3[C@@H]4CCc5cc(O)c([N+](=O)[O-])cc5[C@H]4CC[C@]23C)cc1 in this test
Solution: FALSE

Problem: Query: recorded result category for N=C1S/C(=C/c2ccc(-c3ccc4c(c3)C(=O)NC4=O)o2)C(=O)N1c1ccc(Br)cc1 in this test
Solution: FALSE

Problem: Query: recorded result category for CCN(CC)CCOc1cccc2c1C(=O)c1ccccc1C2=O in this test
Solution: FALSE

Problem: Query: recorded result category for c1ccc2c(c1)Cc1ccccc1N2CCN1CCCCC1 in this test
Solution: FALSE

Problem: Query: recorded result category for CC(=O)OC1CC2C(C)(C)CCC[C@]2(C)C2=C1C(O)=C(C(C)C)C(=O)C2=O (stereo not given in full) in this test
Solution: FALSE

Problem: Query: recorded result category for Cc1ccc(NCCN(C)CC(C)O)c2c(=O)c3ccc(Cl)cc3sc12 (stereo not given) in this test
Solution: FALSE

Problem: Query: recorded result category for COc1cc2cc(Oc3ccc(NC(=O)Nc4ccc(C(F)(F)F)cc4)cc3)c(C)nc2cc1OC in this test
Solution: FALSE

Problem: Query: recorded result category for CC(=O)[C@@]12O[C@](C)(c3ccccc3)O[C@@H]1CC1C3CCC4=CC(=O)CC[C@]4(C)C3CC[C@@]12C (stereo not given in full) in this test
Solution: FALSE

Problem: Query: recorded result category for c1ccc(/C(=N\Nc2ccc3ccccc3n2)c2ccccn2)cc1 in this test
Solution: FALSE

Problem: Query: recorded result category for COc1ccc(-c2nn(-c3cccc(Cl)c3)cc2/C=C2\NC(=S)N(c3ccc(Cl)cc3)C2=O)cc1 in this test
Solution: FALSE

Problem: Query: recorded result category for CS(=O)(=O)c1nccc(-c2c(-c3cccc(OCCN4CCOCC4)c3)nc3sccn23)n1 in this test
Solution: FALSE

Problem: Query: recorded result category for CCCCC(CC)CN=C(N)NC(N)=NCCCCCCN=C(N)NC(N)=NCC(CC)CCCC (stereo not given) in this test
Solution: TRUE

Problem: Query: recorded result category for COc1ccc(/C=C/C(=O)C(=O)/C=C/c2ccc(OC)c(OC)c2)cc1OC in this test
Solution: FALSE
